// values below are reported TD50
- assay remarks: Neurotoxicity observation (motility, muscle tonus, respiratory frequency, body temperature, general behaviour)
- Design: species or system mice (NMRI)
- assay context: mouse, in vivo, po

// known answers, use as guide
[[record]]
compound = "CCC1(C)CC(=O)NC1=O (stereo not drawn) [Ethosuximide, reference compound]"
value_reported = "500 mg/kg"

[[record]]
compound = "NC(=O)N1c2ccccc2C=Cc2ccccc21 [carbamazepine, reference compound]"
value_reported = "100 mg/kg"


Task item: Return TD50 for the following compound: O=C1NC(=O)C(c2ccccc2)(c2ccccc2)N1 [diphenylhydantoin, reference compound]
Reply: 100 mg/kg
